# assay-comment: Plasma concentration in po dosed Sprague-Dawley rat administered as single dose
# Format: ADME, organism-based
# reported-conditions: in vivo
endpoint-name: concentration
Answer format: number, then unit.

Complete the entry with concentration for CCn1c2ccccc2c2cc(CNC3CCCc4ccccc43)ccc21 (stereo unspecified)
3.57 µM

* * *

# system: UniProtKB O14744
# assay-comment: Inhibition of PRMT5 (unknown origin) using H4R3 as substrate by HTRF assay
pIC50: −log10 of the molar value.
endpoint-name: pIC50

Complete the entry with pIC50 for `O=C(NC[C@H](O)CN1CCCCC1)c1cc(NC2COC2)ncn1`
< 5.00

* * *

# system: Protein arginine N-methyltransferase 5 (Homo sapiens)
# assay-comment: Inhibition of human 6xHis-tagged PRMT5 expressed in bacterial expression system using histone H2A as substrate after 2 hrs in presence of by S-[methyl-3H]adenosylmethionine by liquid scintillation counting
endpoint-name: pIC50
Answers are plain numbers, as −log10 of the molar value.

Specify the recorded pIC50 for CCn1c2ccccc2c2cc(CNC3CCCc4ccccc43)ccc21 (stereo unspecified) , system: Protein arginine N-methyltransferase 5 (Homo sapiens).
6.29

* * *

# assay-comment: Antiproliferative activity against human TH2 cells by trypan blue exclusion assay
# Assay type: functional, cell-based
endpoint-name: pIC50
Numbers only, as −log10 of the molar value.

Complete the entry with pIC50 for `CCn1c2ccc(Br)cc2c2cc(CNCc3ccccc3OC)ccc21`
5.40

* * *

# assay-comment: Antiproliferative activity against human Th1 cells by trypan blue exclusion assay
# Format: functional, cell-based
endpoint-name: pIC50
Answers are plain numbers, as −log10 of the molar value.

Complete the entry with pIC50 for `CCn1c2ccc(Br)cc2c2cc(CNCc3ccccc3OC)ccc21`
5.96

* * *

# assay-comment: Plasma clearance in mouse at 2 mg/kg, iv
# Assay type: ADME, organism-based
endpoint-name: clearance
Answer format: number, then unit.

Complete the entry with clearance for `O=C(NC[C@H](O)CN1CCc2ccccc2C1)c1cc(NC2COC2)ncn1`
30 mL/min/kg

* * *

# assay-comment: Oral bioavailability in mouse at 10 mg/kg
# Assay type: ADME, organism-based
# reported-conditions: in vivo
endpoint-name: bioavailability (%)
Give bare numbers, in %.

Complete the entry with bioavailability for `O=C(NC[C@H](O)CN1CCc2ccccc2C1)c1cc(NC2COC2)ncn1`
69

* * *

# Tested on: JeKo-1
# assay-comment: Antiproliferative activity against human JeKo1 cells after 3 days by cell titer-glo luminescent cell viability assays
# Format: functional, cell-based
# reported-conditions: JeKo-1, 72 h
endpoint-name: EC50 (µM)
One number for each entry, in µM.

Specify the recorded EC50 for OC(CNCc1c(OCc2ccccc2)ccc2ccccc12)c1ccccc1 (stereo unspecified) , system: JeKo-1.
10.5

* * *

# assay-comment: Volume of distribution in mouse at 2 mg/kg, iv
# Type: ADME, organism-based
# reported-conditions: in vivo
endpoint-name: Vd
Answer format: number, then unit.

Complete the entry with Vd for `O=C(NC[C@H](O)CN1CCc2ccccc2C1)c1cc(NC2COC2)ncn1`
1.7 L/kg

* * *

# system: PRMT5/MEP50 complex (Homo sapiens, UniProt O14744)
# Sequence (O14744 whole entry): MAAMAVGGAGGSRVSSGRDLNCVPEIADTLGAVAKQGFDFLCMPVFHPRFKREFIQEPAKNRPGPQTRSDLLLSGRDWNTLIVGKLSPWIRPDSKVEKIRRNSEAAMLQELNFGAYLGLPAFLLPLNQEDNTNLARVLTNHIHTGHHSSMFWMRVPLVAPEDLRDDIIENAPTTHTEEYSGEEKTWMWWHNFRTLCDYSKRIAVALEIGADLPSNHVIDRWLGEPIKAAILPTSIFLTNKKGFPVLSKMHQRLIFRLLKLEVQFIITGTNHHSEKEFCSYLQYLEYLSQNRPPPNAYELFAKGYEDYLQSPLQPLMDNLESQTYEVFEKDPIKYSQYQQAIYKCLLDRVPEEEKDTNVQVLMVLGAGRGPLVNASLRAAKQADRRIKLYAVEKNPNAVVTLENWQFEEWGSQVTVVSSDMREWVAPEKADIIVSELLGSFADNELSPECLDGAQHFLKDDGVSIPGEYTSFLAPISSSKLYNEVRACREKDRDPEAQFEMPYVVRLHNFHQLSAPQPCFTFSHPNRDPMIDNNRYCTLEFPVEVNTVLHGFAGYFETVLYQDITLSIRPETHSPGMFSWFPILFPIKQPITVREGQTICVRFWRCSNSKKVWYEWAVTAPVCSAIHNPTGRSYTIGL
# Sequence (Q9BQA1 whole entry, further chain): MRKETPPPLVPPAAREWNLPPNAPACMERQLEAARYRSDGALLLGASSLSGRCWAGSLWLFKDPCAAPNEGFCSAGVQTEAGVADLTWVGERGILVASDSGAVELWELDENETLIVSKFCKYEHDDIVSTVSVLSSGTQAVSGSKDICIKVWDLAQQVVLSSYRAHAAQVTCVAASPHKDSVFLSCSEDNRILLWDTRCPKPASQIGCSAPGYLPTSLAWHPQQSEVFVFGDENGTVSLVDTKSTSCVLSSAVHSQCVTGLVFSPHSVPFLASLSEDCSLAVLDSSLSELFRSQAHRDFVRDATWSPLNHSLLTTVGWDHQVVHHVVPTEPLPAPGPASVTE
# assay-comment: Inhibition of human N-terminal FLAG-tagged PRMT5 (2 to end)/human N-terminal His-tagged MEP50 (2 to end) expressed in HEK293 cells using biotinylated H4 derived peptide as substrate preincubated for 15 mins followed by substrate addition measured after 60 mins in presence of [3H]SAM by liquid scintillation counting
endpoint-name: IC50
Answer format: number, then unit.

Specify the recorded IC50 for `OCCNCc1c(OCc2ccc(Cl)cc2)ccc2ccccc12` , system: PRMT5/MEP50 complex (Homo sapiens, UniProt O14744).
35.6 µM

* * *

# system: Protein arginine N-methyltransferase 5 (Homo sapiens, UniProt O14744)
# assay-comment: Inhibition of human PRMT5 expressed in insect cells co-expressing His-tagged MEP50 using Ser-Gly-Arg-Gly- Lys-Gly-Gly-Lys-Gly-Leu-Gly-Lys-Gly-Gly-Ala-Lys-Arg-His-Arg-Lys-Val-NH2 peptide as substrate after 4 hrs in presence of SAM by Transcreene EPIGEN methyltransferase assays
endpoint-name: IC50 (nM)
One number for each entry, in nM.

O=C(NC[C@H](O)CN1CCc2ccccc2C1)c1ccc(C(=O)N2CCOCC2)cc1 = 109

Complete the entry with IC50 for `CC(=O)N1CCC(Oc2nccc(C(=O)NC[C@@H](O)CNC3Cc4ccccc4C3)c2Cl)CC1`
105
